Each recorded value in this set is attributed to patent US20250376519A1.

Target: T1, human DLL3 on cells (human, UniProt Q9NYJ7 27-618)
T1 construct: Endogenous on H1184 and SHP77; Cell line is named under assay; also called H1184; DLL3/H82
T1 sequence: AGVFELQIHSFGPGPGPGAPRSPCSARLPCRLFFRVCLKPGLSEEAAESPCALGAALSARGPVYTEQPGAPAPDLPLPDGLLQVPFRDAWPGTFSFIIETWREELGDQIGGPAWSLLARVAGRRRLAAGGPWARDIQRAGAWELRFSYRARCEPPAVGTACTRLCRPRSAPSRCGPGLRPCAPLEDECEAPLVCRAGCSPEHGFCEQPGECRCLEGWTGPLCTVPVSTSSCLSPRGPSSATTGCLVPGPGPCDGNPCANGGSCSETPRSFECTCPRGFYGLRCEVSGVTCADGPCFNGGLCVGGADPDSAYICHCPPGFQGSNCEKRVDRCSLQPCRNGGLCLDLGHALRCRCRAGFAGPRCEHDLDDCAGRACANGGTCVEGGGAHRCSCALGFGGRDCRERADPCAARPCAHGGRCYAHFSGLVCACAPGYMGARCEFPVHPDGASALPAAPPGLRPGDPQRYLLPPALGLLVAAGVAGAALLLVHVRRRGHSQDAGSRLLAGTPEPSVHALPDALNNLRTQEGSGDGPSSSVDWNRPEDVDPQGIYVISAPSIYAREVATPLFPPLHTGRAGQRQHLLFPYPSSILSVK
Test: flow cytometry, DLL3/H82 cells
Set-up: key: geometric mean fluorescence intensity (flow cytometry)
quantity_name: Emax
Answers are plain numbers.

Worked examples follow.
{"columns": ["binder", "Emax"],
 "data": [
  ["hu30L3H5 (antibody, human IgG1, kappa, V domains shown) VH: EVRLVQSGAEVKKPGASVKVSCKASGYTFTDYYMNWVRQAPGQSLEWMGIINPYTGDTSYNQKFRGRVTLTVDKSASTAYMELSSLRSEDTAVYYCARYHYGPHLEGYFDVWGQGTTVTVSS VL: DIVMTQSPKSLAVSLGERATINCKASENVGYVSWYQQKPGQSPKLLIYGASNRYTGVPDRFSGSGSATDFTLTISSLQAEDVAVYHCGQSYSYPLTFGQGTKLEIKR", 5250],
  ["hu30L3H3 (antibody, human IgG1, kappa, V domains shown) VH: EVRLVQSGAEVKKPGASVKVSCKASGYTFTDYYMNWVRQAPGQSLEWMGIINPYQGDTSYNQKFRGRVTLTVDKSASTAYMELSSLRSEDTAVYYCARYHYGPHLEGYFDVWGQGTTVTVSS VL: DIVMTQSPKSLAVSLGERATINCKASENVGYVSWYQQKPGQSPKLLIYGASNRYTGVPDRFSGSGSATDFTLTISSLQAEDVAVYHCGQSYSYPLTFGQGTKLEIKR", 5300],
  ["hu30L3H6 (antibody, human IgG1, kappa, V domains shown) VH: EVRLVQSGAEVKKPGASVKVSCKASGYTFTDYYMNWVRQAPGQSLEWMGIINPYNVDTSYNQKFRGRVTLTVDKSASTAYMELSSLRSEDTAVYYCARYHYGPHLEGYFDVWGQGTTVTVSS VL: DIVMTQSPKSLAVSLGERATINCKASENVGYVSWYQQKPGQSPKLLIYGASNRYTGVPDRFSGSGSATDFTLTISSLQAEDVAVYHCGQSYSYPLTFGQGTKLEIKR", 5340],
  ["hu30L1H4 (antibody, human IgG1, kappa, V domains shown) VH: EVRLVQSGAEVKKPGASVKVSCKASGYTFTDYYMNWVRQAPGQSLEWMGIINPYSGDTSYNQKFRGRVTLTVDKSASTAYMELSSLRSEDTAVYYCARYHYGPHLEGYFDVWGQGTTVTVSS VL: DIVMTQSPDSLAVSLGERATINCKASENVGYVSWYQQKPGQPPKLLIYGASNRYTGVPDRFSGSGSGTDFTLTISSLQAEDVAVYYCGQSYSYPLTFGQGTKLEIKR", 5360],
  ["hu30L2H6 (antibody, human IgG1, kappa, V domains shown) VH: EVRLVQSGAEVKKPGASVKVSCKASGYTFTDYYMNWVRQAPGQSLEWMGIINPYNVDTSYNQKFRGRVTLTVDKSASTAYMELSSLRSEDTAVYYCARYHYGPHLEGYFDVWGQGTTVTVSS VL: DIVMTQSPDSLAVSLGERATINCKASENVGYVSWYQQKPGQPPKLLIYGASNRYTGVPDRFSGSGSATDFTLTISSLQAEDVAVYHCGQSYSYPLTFGQGTKLEIKR", 5420]
]}

I have 5 binders here; please give me Emax for each one.
1. hu30L3H4 (antibody, human IgG1, kappa, V domains shown) VH: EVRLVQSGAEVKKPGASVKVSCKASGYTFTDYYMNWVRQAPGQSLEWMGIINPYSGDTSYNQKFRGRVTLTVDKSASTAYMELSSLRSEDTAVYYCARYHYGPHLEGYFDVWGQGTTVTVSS VL: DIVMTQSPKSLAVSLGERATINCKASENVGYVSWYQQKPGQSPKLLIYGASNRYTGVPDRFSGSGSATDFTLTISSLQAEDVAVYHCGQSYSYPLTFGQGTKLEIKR
2. hu30L1H3 (antibody, human IgG1, kappa, V domains shown) VH: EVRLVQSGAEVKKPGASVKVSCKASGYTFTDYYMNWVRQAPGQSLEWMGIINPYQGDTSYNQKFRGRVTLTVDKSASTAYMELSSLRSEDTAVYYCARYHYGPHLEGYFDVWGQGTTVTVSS VL: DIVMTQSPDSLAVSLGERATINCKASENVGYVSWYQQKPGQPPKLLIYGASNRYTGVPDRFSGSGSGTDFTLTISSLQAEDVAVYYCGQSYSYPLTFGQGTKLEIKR
3. hu30L1H5 (antibody, human IgG1, kappa, V domains shown) VH: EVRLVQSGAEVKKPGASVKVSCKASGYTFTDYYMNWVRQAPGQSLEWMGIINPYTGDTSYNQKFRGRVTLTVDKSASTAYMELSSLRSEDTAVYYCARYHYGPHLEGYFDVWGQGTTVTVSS VL: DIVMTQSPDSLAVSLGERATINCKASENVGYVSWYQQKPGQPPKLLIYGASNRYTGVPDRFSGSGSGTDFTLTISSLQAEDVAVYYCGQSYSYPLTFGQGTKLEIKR
4. hu30L2H3 (antibody, human IgG1, kappa, V domains shown) VH: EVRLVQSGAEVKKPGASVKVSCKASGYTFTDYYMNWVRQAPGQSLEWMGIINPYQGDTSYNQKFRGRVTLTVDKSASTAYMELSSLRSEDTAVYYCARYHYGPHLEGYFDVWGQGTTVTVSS VL: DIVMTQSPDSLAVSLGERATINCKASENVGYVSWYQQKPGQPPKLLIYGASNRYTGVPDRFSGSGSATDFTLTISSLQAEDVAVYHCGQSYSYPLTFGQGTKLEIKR
5. hu30L1H1 (antibody, human IgG1, kappa, V domains shown) VH: EVQLVQSGAEVKKPGASVKVSCKASGYTFTDYYMNWVRQAPGQSLEWMGIINPYNGDTSYNQKFRGRVTITVDKSASTAYMELSSLRSEDTAVYYCARYHYGPHLEGYFDVWGQGTTVTVSS VL: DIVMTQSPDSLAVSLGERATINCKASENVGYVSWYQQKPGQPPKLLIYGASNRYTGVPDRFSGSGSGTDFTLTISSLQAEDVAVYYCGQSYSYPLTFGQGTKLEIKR

Output line:
5340
5560
6800
4720
5870
